- tgt: A1 receptors (Rattus norvegicus, UniProt P25099)
- Sequence (P25099 whole entry): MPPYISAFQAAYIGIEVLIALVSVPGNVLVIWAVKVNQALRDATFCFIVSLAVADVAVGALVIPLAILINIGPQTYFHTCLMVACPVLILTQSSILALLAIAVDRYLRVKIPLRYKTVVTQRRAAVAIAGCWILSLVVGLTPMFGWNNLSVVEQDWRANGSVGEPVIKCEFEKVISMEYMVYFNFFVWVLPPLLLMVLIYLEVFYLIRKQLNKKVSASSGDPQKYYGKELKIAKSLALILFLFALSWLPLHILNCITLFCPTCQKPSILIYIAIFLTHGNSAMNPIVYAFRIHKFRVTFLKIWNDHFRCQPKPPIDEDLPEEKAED
- assay-summary: biochemical
- Format: binding
- condition-context: Table 12; 10^-4 M; read-out: % inhibition rA1
measured-endpoint: inhibition at 100 µM (%)
# number only, unit % dropped from output

# compound, tgt, measured-endpoint, numeric-readout
measured = [
    ("CCCOC(=O)C1=C(C)NC(c2ccccc2)=C(C(=O)OCc2ccccc2)C1C#Cc1ccccc1 (racemic) [Compound 124]", "A1 receptors (Rattus norvegicus, UniProt P25099)", "inhibition at 100 µM", 27),
    ("CCOC(=O)C1=C(C)NC(c2ccccc2)=C(C(=O)OCc2ccccc2C)C1C#Cc1ccccc1 (racemic) [Compound 122a]", "A1 receptors (Rattus norvegicus, UniProt P25099)", "inhibition at 100 µM", 16),
]

// lookup inhibition at 100 µM | system=A1 receptors (Rattus norvegicus, UniProt P25099) | key= CCOC(=O)C1=C(C)NC(c2ccccc2)=C(C(=O)OCc2ccccc2)C1C#Cc1ccccc1 (stereo not drawn) [Compound 121]
25

# query: inhibition at 100 µM | item CCOCN1C(C)=C(C(=O)OCC)C(C#Cc2ccccc2)C(C(=O)OCC[Si](C)(C)C)=C1c1ccccc1 (racemic) [Compound 138] | system: A1 receptors (Rattus norvegicus, UniProt P25099)
13

Entry CCOC(=O)C1=C(C)NC(c2ccccc2)=C(C(=O)OCc2ccc([N+](=O)[O-])cc2)C1C#Cc1ccccc1 (racemic) [Compound 122g] , system A1 receptors (Rattus norvegicus, UniProt P25099): what inhibition at 100 µM was measured?
29

Please state recorded inhibition at 100 µM (tested on A1 receptors (Rattus norvegicus, UniProt P25099)) of CCOC(=O)C1=C(C)NC(c2ccccc2)=C(C(=O)OCC)C1/C=C/c1ccc([N+](=O)[O-])cc1 (stereo not drawn) [Compound 118]
31
